- ASSAY_REMARKS: Pharmacokinetic study in mice
- Type: in vivo
- MEASUREMENT_CONTEXT: mouse; female Balb/c mice, PO 1 mg/kg, plasma compound I

STRUCTURE_NOTATION: Cc1cc(Nc2cc(C)[nH]n2)nc(-c2ccc(N3CC4CC(C3)N4Cc3ccc(-n4cc(F)cn4)nc3)nc2)n1
Tmax [h]: 1

====

- TEST_SYSTEM: RET^M918T (Homo sapiens, UniProt P07949, M918T)
- Sequence (P07949 29-1114 M918T): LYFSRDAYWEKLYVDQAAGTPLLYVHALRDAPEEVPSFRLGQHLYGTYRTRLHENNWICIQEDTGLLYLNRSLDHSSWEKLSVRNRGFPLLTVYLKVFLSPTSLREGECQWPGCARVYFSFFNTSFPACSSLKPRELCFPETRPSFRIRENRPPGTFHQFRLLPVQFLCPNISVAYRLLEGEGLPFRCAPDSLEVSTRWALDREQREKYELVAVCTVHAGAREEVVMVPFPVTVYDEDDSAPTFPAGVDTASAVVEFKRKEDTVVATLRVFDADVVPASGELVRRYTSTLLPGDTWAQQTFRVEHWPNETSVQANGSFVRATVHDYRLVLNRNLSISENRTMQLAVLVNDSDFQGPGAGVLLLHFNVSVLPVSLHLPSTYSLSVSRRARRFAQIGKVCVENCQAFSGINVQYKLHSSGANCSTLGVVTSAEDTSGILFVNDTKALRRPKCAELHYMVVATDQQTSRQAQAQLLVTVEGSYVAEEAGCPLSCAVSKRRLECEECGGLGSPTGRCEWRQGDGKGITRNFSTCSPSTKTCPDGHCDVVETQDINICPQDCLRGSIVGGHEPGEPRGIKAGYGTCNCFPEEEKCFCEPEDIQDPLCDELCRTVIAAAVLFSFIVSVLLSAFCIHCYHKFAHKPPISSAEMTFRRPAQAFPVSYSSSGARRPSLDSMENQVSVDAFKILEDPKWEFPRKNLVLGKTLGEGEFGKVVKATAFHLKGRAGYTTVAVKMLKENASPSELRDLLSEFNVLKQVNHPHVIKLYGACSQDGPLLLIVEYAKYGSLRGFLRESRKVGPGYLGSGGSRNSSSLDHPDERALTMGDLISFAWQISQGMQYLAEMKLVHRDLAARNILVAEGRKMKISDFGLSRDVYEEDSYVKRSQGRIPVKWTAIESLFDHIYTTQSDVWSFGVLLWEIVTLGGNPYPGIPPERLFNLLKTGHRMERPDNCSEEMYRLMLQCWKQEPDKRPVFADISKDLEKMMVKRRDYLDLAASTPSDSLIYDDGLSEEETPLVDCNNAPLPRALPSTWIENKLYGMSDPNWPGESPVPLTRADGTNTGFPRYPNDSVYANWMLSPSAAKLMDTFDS
- ASSAY_REMARKS: HTRF KinEASE-TK RET enzyme inhibition
- MEASUREMENT_CONTEXT: RET^M918T 0.3 nM, ATP 15 μM; read-out: Inhibitory IC50 on RET enzyme

STRUCTURE_NOTATION: Cc1cc(Nc2cc(C)[nH]n2)nc(-c2ccc(N3CC4CC(C3)N4Cc3ccc(-n4cc(F)cn4)nc3)nc2)n1
IC50, nM: 2.23
